- tested on: αvβ3 receptor (purified from human placenta) (Homo sapiens, UniProt P05106+P06756)
- Construct: αvβ3 receptor (purified from human placenta); from tissue; host or cells: human placenta
- protocol text: competition radioligand binding assay, 125I-echistatin to αvβ3 receptor
- run conditions: Table 12; αvβ3, inhibition of specific 125I-echistatin binding
measured endpoint: IC50
The reply should read as a number followed by its unit.

Measured IC50, CC(C)(C)OC(=O)N[C@@H](CNC(=O)c1ccc(CN(Cc2nc3ccccc3[nH]2)C(=O)CCc2ccccc2)cc1)C(=O)O [Example 5-63] : 20 nM

Measured IC50, CC(=O)N(Cc1ccc(C(=O)NC[C@H](NC(=O)OC(C)(C)C)C(=O)O)cc1)Cc1nc2ccccc2[nH]1 [Example 5-61] : 17 nM

Measured IC50, COCC(=O)N(Cc1ccc(C(=O)NC[C@H](NC(=O)OC(C)(C)C)C(=O)O)cc1)Cc1nc2ccccc2[nH]1 [Example 5-62] : 30 nM

Measured IC50, CC(C)(C)OC(=O)N[C@@H](CNC(=O)c1ccc(CNCc2nc3ccccc3[nH]2)cc1)C(=O)O [Example 5-60] : 25 nM

Measured IC50, CC(C)(C)OC(=O)N[C@@H](CNC(=O)c1ccc(CN(Cc2nc3ccccc3[nH]2)C(=O)CCC2CCCC2)cc1)C(=O)O [Example 5-64] : 16 nM

These entries and their values trace back to patent EP1135374B9.
